Every entry's value here was drawn from patent US20230093861A1.

Would you mind telling me the reported IC50 of each entry?
Test system: P-Akt (S473)
Assay: Cell based AlphaLISA assay, inhibition of P-Akt (S473) (mTORC2 substrate phosphorylation) in MDA-MB-468 cells
Conditions: Homo sapiens, MDA-MB-468, 4 h, two to four hours at 37° C., AlphaLisa SureFire Ultra, read-out: IC50 for Inhibition of mTORC1 and mTORC2 Substrate Phosphorylation, p-AKT1/2/3-(S473)
Report field: quantity (unit follows the number).

API: value(readout= IC50, system= P-Akt (S473), query= CO[C@H]1C[C@@H]2CC[C@@H](C)[C@@](O)(O2)C(=O)C(=O)N2CCCC[C@H]2C(=O)O[C@H]([C@H](C)C[C@@H]2CC[C@@H](OCCCCc3cn(CCOCCOCCOCCOCCOCCOCCOCCOCCC(=O)NCCCCn4nc(-c5ccc6oc(N)nc6c5)c5c(N)ncnc54)nn3)[C@H](OC)C2)CC(=O)[C@H](C)/C=C(\C)[C@@H](O)[C@@H](OC)C(=O)[C@H](C)C[C@H](C)/C=C/C=C/C=C/1C )
3.9 nM

Could you do the same for CC(C)n1nc(-c2ccc3oc(N)nc3c2)c2c(N)ncnc21 [MLN-128, reference compound] , please?
3.7 nM
